- test_system: Chloroquine resistance transporter (Plasmodium falciparum) (UniProt Q9N623)
- Sequence (Q9N623 whole entry): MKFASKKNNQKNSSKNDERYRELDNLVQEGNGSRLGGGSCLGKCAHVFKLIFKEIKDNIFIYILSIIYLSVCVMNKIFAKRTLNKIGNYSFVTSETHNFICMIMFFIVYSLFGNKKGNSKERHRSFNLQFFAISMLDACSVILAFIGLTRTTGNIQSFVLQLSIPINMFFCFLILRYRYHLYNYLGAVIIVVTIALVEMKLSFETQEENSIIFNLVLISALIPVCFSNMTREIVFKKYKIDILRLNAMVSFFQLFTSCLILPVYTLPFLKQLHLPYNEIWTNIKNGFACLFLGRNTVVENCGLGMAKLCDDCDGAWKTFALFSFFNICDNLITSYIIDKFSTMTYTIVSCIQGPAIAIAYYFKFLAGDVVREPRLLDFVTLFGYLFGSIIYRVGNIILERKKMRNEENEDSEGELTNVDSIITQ
- procedure_text: Inhibition of CTR in Plasmodium falciparum C4Dd2 expressing chloroquine-resistance-conferring pfcrt alleles assessed as increase of accumulation of [3H]-chloroquine level at 1 uM after 1 hr relative to control
Overview of reported fold change (FC) across a group of molecules:

molecule: CN(C)CCCC(c1cccc(Cl)c1)c1ccccn1 (racemic)
fold change (FC): 2.7
--
molecule: CN(C)CCC(c1ccc(Cl)cc1)c1ccccn1 (stereo in doubt; form 1)
fold change (FC): 2.7
--
molecule: CCN(CC)C/C=C(\c1ccc(Cl)cc1)c1ccccn1
fold change (FC): 1.6
--
molecule: COc1ccc(CCN(C)CCCC(C#N)(c2ccc(OC)c(OC)c2)C(C)C)cc1OC (stereo not given)
fold change (FC): 3.1
--
molecule: CN(C)CCCCC(c1ccc(Cl)cc1)c1ccccn1 (racemic)
fold change (FC): 2.4
